// data source = patent US9902696B2

Molecular target: recombinant human baculovirus-expressed GST-tagged FASN (Homo sapiens)
Construct: GST
Sequence (P49327 whole entry): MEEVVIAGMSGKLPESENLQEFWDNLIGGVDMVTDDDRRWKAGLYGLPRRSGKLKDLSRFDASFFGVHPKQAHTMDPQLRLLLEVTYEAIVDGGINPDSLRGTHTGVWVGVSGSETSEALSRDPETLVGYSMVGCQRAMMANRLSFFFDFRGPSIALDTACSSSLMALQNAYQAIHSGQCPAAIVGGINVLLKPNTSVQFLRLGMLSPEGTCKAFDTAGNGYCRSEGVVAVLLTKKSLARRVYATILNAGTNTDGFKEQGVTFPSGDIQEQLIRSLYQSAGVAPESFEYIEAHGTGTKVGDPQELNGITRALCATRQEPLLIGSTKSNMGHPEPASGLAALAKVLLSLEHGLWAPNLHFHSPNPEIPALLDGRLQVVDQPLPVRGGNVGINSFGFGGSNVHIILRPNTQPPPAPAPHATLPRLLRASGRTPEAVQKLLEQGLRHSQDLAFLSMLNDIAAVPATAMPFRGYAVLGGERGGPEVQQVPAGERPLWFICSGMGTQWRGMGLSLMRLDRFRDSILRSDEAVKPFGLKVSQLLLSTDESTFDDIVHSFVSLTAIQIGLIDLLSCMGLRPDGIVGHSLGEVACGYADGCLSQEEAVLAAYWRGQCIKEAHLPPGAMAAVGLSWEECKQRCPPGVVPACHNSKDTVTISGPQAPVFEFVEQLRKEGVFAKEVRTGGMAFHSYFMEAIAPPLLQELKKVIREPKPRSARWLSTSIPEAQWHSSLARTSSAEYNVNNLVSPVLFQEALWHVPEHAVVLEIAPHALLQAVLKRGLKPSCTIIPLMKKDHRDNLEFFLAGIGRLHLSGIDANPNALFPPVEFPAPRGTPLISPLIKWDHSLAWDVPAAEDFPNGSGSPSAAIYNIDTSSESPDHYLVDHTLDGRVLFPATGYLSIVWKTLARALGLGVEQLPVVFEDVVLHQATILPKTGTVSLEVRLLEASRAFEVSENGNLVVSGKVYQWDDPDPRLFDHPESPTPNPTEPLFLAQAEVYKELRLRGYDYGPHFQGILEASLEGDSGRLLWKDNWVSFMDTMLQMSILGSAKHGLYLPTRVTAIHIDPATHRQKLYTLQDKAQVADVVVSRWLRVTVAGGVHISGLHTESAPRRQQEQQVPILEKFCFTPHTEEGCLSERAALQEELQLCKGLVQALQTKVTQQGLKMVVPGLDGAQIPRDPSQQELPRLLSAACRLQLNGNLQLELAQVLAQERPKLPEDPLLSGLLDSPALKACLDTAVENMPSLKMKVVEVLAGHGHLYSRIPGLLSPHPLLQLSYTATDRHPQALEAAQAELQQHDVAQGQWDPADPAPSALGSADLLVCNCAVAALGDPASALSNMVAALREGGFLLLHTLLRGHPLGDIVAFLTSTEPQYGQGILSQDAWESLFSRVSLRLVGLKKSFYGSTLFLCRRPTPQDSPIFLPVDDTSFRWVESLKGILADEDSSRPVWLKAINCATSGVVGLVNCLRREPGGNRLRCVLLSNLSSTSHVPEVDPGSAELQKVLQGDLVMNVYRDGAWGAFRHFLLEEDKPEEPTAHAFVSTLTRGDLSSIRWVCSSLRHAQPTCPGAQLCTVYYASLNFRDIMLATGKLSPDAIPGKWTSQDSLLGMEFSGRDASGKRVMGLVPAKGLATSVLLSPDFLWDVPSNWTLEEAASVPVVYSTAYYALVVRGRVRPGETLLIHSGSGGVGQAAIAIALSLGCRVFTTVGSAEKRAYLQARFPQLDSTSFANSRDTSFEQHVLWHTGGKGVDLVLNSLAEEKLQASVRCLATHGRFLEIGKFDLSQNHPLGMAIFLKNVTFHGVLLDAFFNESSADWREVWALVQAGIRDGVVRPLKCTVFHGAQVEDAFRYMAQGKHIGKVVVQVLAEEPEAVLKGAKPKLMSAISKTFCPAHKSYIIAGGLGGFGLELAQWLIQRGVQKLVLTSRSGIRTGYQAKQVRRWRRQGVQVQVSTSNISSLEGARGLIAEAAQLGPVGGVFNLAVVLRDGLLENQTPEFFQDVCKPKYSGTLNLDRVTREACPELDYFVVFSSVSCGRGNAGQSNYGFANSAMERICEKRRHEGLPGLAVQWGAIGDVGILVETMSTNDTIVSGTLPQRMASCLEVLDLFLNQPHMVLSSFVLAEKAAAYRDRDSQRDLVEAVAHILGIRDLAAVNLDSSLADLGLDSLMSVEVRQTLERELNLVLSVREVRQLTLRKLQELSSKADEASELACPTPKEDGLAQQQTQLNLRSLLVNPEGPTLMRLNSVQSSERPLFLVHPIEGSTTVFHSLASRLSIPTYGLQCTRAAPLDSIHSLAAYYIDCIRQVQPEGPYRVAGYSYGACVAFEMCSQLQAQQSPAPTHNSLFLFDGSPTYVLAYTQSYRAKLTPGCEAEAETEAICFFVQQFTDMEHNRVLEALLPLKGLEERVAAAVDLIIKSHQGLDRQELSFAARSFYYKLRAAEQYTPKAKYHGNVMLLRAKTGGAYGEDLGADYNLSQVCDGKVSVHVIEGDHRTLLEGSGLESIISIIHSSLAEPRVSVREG
Assay: FASN enzyme activity assay, fluorescence-based detection of CoA with CPM
Format: biochemical
Conditions: 5 nM FASN, 150 μM NADPH, 10 μM acetyl-CoA, 25 μM malonyl-CoA, 90 minutes incubation; read-out: IC50 data for Additional Compounds of Formulae I-V(a): Activity
Structures can show the parent of a compound that is named as a salt.
The reader will find reported IC50 values listed item by item below.

As a guide, the following entries are already answered.
Cc1c(-c2ccc(OC3CCN(C(=O)NOC(C)C)CC3)cc2)ccn2ccnc12 [Example 630, HCl] :: 100 to 999 nM
CCNC(=O)N1CCC(Oc2ccc(-c3ccc4ccc(O)nc4c3C)cc2)CC1 [Example 529] :: 1000 to 10000 nM
Cc1c(-c2ccc(OC3CCN(C(=O)NCC(C)C)CC3)cc2)cnc2ccccc12 [Example 590] :: 1 to 99 nM
CONC(=O)N1CCC(Oc2ccc(-c3ccc4nccn4c3C)cc2)CC1 [Example 611] :: 1000 to 10000 nM
CC(C)CCNC(=O)N1CCC(Oc2ccc(-c3ccc4nccn4c3Cl)cc2)CC1 [Example 572] :: 1000 to 10000 nM
Cc1c(-c2ccc(OC3CCN(C(=O)Nc4cnn(C)c4)CC3)cc2)ccc2nccn12 [Example 604] :: 1000 to 10000 nM

Data request: Item under review: Cc1c(-c2ccc(OC3CCN(C(=O)NCC(C)C)CC3)cc2)ccc2nccn12 [Example 593] . Reported IC50?
Data returned: 1000 to 10000 nM

Data request: Item under review: Cc1c(-c2ccc(OC3CCN(C(=O)OCCN4CCCC4)CC3)cc2)ccc2cccnc12 [Example 547] . Reported IC50?
Data returned: 1000 to 10000 nM
